B1: ZNF263 (parent)
chain: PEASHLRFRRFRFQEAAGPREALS

- Variants of: B1
- Assay Remarks: protein stability index of a GFP-peptide fusion (GPS, HEK-293T) (PSI 1-6); higher = more stable;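 note: lentivirally expressed fusions sorted by FACS into six bins by GFP to DsRed ratio, PSI derived from sequencing read proportions per bin multiplied by bin number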
- Study Conditions: c terminus: a fixed tail appended

[
  {
    "Variant Label": "H5V",
    "protein stability index": 2.15
  },
  {
    "Variant Label": "A16V",
    "protein stability index": 2.31
  },
  {
    "Variant Label": "L6Y",
    "protein stability index": 1.66
  },
  {
    "Variant Label": "A16Y",
    "protein stability index": 2.1
  },
  {
    "Variant Label": "S4N",
    "protein stability index": 2.8
  },
  {
    "Variant Label": "L23A",
    "protein stability index": 3.44
  },
  {
    "Variant Label": "R20F",
    "protein stability index": 1.62
  },
  {
    "Variant Label": "F8N",
    "protein stability index": 3.46
  },
  {
    "Variant Label": "S4A",
    "protein stability index": 2.4
  },
  {
    "Variant Label": "R12E",
    "protein stability index": 5.03
  },
  {
    "Variant Label": "R20Y",
    "protein stability index": 1.49
  },
  {
    "Variant Label": "R10V",
    "protein stability index": 1.26
  },
  {
    "Variant Label": "G18D",
    "protein stability index": 2.64
  },
  {
    "Variant Label": "A3L",
    "protein stability index": 2.4
  },
  {
    "Variant Label": "A22M",
    "protein stability index": 2.37
  },
  {
    "Variant Label": "R7W",
    "protein stability index": 3.63
  },
  {
    "Variant Label": "S24V",
    "protein stability index": 2.2
  },
  {
    "Variant Label": "E21G",
    "protein stability index": 2.4
  },
  {
    "Variant Label": "E15K",
    "protein stability index": 2.04
  },
  {
    "Variant Label": "F13L",
    "protein stability index": 2.65
  },
  {
    "Variant Label": "G18I",
    "protein stability index": 2.35
  },
  {
    "Variant Label": "R12S",
    "protein stability index": 4.05
  },
  {
    "Variant Label": "R9N",
    "protein stability index": 3.08
  },
  {
    "Variant Label": "F13P",
    "protein stability index": 3.9
  },
  {
    "Variant Label": "F13Q",
    "protein stability index": 4.18
  },
  {
    "Variant Label": "Q14M",
    "protein stability index": 2.93
  },
  {
    "Variant Label": "F8K",
    "protein stability index": 3.29
  }
]
